tested on: Avena fatua; test: Pre-emergence herbicidal action; type: in vivo; conditions: application rate 80 g/ha
In this section we review reported Avena fatua (efficacy in %) values for a set of compounds.
Respond numerically; units are % and should not be typed.

Here's what some known entries look like.
[
  {
    "Compound": "COCCOCCOCCOCCOC(=O)COc1ncccc1Oc1cc(-n2c(=O)cc(C(F)(F)F)n(C)c2=O)c(F)cc1Cl [I.15-154]",
    "Test target": "Avena fatua",
    "Measure unit": "%",
    "Recorded value": 100
  },
  {
    "Compound": "Cn1c(C(F)(F)F)cc(=O)n(-c2cc(Oc3cccnc3OCC(=O)OCc3cccnn3)c(Cl)cc2F)c1=O [I.15-301]",
    "Test target": "Avena fatua",
    "Measure unit": "%",
    "Recorded value": 100
  },
  {
    "Compound": "Cn1c(C(F)(F)F)cc(=O)n(-c2cc(Oc3cccnc3OCC(=O)OCC[Si](C)(C)C)c(Cl)cc2F)c1=O [I.15-211]",
    "Test target": "Avena fatua",
    "Measure unit": "%",
    "Recorded value": 80
  }
]

Please fill in: Avena fatua (efficacy in %) reported for Cn1c(C(F)(F)F)cc(=O)n(-c2cc(Oc3cccnc3OCC(=O)OCCS(C)(=O)=O)c(Cl)cc2F)c1=O [I.15-166] = 100

Please fill in: Avena fatua (efficacy in %) reported for Cn1c(C(F)(F)F)cc(=O)n(-c2cc(Oc3cccnc3OCC(=O)OCc3ccccn3)c(Cl)cc2F)c1=O [I.15-286] = 100

Please fill in: Avena fatua (efficacy in %) reported for Cn1c(C(F)(F)F)cc(=O)n(-c2cc(Oc3cccnc3OCC(=O)OCc3ccc(C(F)(F)F)nc3)c(Cl)cc2F)c1=O [I.15-350] = 100

* * *

test system: Triticum aestivum; assay: Pre-emergence crop plant compatibility; format: in vivo; settings: application rate 20 g/ha
In this section we review reported Triticum aestivum (efficacy in %) values for a set of compounds.
Respond numerically; units are % and should not be typed.

Here's what some known entries look like.
[
  {
    "Compound": "Cn1c(C(F)(F)F)cc(=O)n(-c2cc(Oc3cccnc3OCC(=O)OCC[Si](C)(C)C)c(Cl)cc2F)c1=O",
    "Triticum aestivum (efficacy in %)": 0
  },
  {
    "Compound": "CC(C#N)COC(=O)COc1ncccc1Oc1cc(-n2c(=O)cc(C(F)(F)F)n(C)c2=O)c(F)cc1Cl (stereo not shown)",
    "Triticum aestivum (efficacy in %)": 20
  },
  {
    "Compound": "Cn1c(C(F)(F)F)cc(=O)n(-c2cc(Oc3cccnc3OCC(=O)OCC3NC(=O)NC3=O)c(Cl)cc2F)c1=O (stereo not shown)",
    "Triticum aestivum (efficacy in %)": 10
  }
]

Please fill in: Triticum aestivum (efficacy in %) reported for `Cn1c(C(F)(F)F)cc(=O)n(-c2cc(Oc3cccnc3OCC(=O)OCCOCc3ccccc3)c(Cl)cc2F)c1=O` = 10

Please fill in: Triticum aestivum (efficacy in %) reported for `Cn1c(C(F)(F)F)cc(=O)n(-c2cc(Oc3cccnc3OCC(=O)OCCS(C)(=O)=O)c(Cl)cc2F)c1=O` = 20

Please fill in: Triticum aestivum (efficacy in %) reported for `COCCOCCOCCOCCOC(=O)COc1ncccc1Oc1cc(-n2c(=O)cc(C(F)(F)F)n(C)c2=O)c(F)cc1Cl` = 10

Please fill in: Triticum aestivum (efficacy in %) reported for `Cn1c(C(F)(F)F)cc(=O)n(-c2cc(Oc3cccnc3OCC(=O)OCC3OCCO3)c(Cl)cc2F)c1=O` = 10

* * *

test system: Matricaria inodora; experiment: Post-emergence herbicidal action; format: in vivo; settings: application rate 5 g/ha, rated visually after about 3 weeks vs untreated controls
In this section we review reported Matricaria inodora (efficacy in %) values for a set of compounds.
Respond numerically; units are % and should not be typed.

Here's what some known entries look like.
[
  {
    "Compound": "Cn1c(C(F)(F)F)cc(=O)n(-c2cc(Sc3cccnc3SCC(=O)OCC3CCCO3)c(Cl)cc2F)c1=O (stereo not drawn)",
    "Measure unit": "%",
    "Matricaria inodora (efficacy in %)": 80
  },
  {
    "Compound": "Cn1c(C(F)(F)F)cc(=O)n(-c2cc(Oc3cccnc3OCC(=O)OCC3OCCO3)c(Cl)cc2F)c1=O",
    "Measure unit": "%",
    "Matricaria inodora (efficacy in %)": 100
  },
  {
    "Compound": "COCCOC(=O)COc1ncccc1Oc1cc(-n2c(=O)cc(C(F)(F)F)n(C)c2=O)c(F)cc1Cl",
    "Measure unit": "%",
    "Matricaria inodora (efficacy in %)": 100
  },
  {
    "Compound": "Cn1c(C(F)(F)F)cc(=O)n(-c2cc(Oc3cccnc3OCC(=O)OCc3ccncc3)c(Cl)cc2F)c1=O",
    "Measure unit": "%",
    "Matricaria inodora (efficacy in %)": 90
  },
  {
    "Compound": "Cn1c(C(F)(F)F)cc(=O)n(-c2cc(Oc3cccnc3OCC(=O)OC3COC3)c(Cl)cc2F)c1=O",
    "Measure unit": "%",
    "Matricaria inodora (efficacy in %)": 100
  }
]

Lab entry: Matricaria inodora assay, compound `COCCOC(=O)COc1ncccc1Sc1cc(-n2c(=O)cc(C(F)(F)F)n(C)c2=O)c(F)cc1Cl` , Matricaria inodora (efficacy in %) = 100

Lab entry: Matricaria inodora assay, compound Cn1c(C(F)(F)F)cc(=O)n(-c2cc(Sc3cccnc3OCC(=O)OCC3CCCO3)c(Cl)cc2F)c1=O (stereo not drawn) , Matricaria inodora (efficacy in %) = 100

Lab entry: Matricaria inodora assay, compound Cn1c(C(F)(F)F)cc(=O)n(-c2cc(Oc3cccnc3OCC(=O)OCC3CCOC3)c(Cl)cc2F)c1=O (stereo not drawn) , Matricaria inodora (efficacy in %) = 90

Lab entry: Matricaria inodora assay, compound `CSCCOC(=O)COc1ncccc1Oc1cc(-n2c(=O)cc(C(F)(F)F)n(C)c2=O)c(F)cc1Cl` , Matricaria inodora (efficacy in %) = 100

* * *

test system: Pharbitis purpurea; experiment: Pre-emergence herbicidal action; format: in vivo; conditions: application rate 20 g/ha
In this section we review reported Pharbitis purpurea (efficacy in %) values for a set of molecules.
Respond numerically; units are % and should not be typed.

Here's what some known entries look like.
[
  {
    "Molecule": "Cn1c(C(F)(F)F)cc(=O)n(-c2cc(Oc3cccnc3OCC(=O)OC[Si](C)(C)C)c(Cl)cc2F)c1=O",
    "Pharbitis purpurea (efficacy in %)": 100
  },
  {
    "Molecule": "Cn1c(C(F)(F)F)cc(=O)n(-c2cc(Oc3cccnc3OCC(=O)OCCOC(F)(F)F)c(Cl)cc2F)c1=O",
    "Pharbitis purpurea (efficacy in %)": 100
  },
  {
    "Molecule": "Cn1c(C(F)(F)F)cc(=O)n(-c2cc(Oc3cccnc3OCC(=O)OCc3cccnn3)c(Cl)cc2F)c1=O",
    "Pharbitis purpurea (efficacy in %)": 100
  },
  {
    "Molecule": "Cn1c(C(F)(F)F)cc(=O)n(-c2cc(Oc3cccnc3OCC(=O)OCC[Si](C)(C)C)c(Cl)cc2F)c1=O",
    "Pharbitis purpurea (efficacy in %)": 80
  }
]

Please fill in: Pharbitis purpurea (efficacy in %) reported for `Cn1c(C(F)(F)F)cc(=O)n(-c2cc(Oc3cccnc3OCC(=O)OCCS(C)(=O)=O)c(Cl)cc2F)c1=O` = 100

Please fill in: Pharbitis purpurea (efficacy in %) reported for CC(C#N)COC(=O)COc1ncccc1Oc1cc(-n2c(=O)cc(C(F)(F)F)n(C)c2=O)c(F)cc1Cl (stereo not shown) = 100

Please fill in: Pharbitis purpurea (efficacy in %) reported for `CSCCOC(=O)COc1ncccc1Oc1cc(-n2c(=O)cc(C(F)(F)F)n(C)c2=O)c(F)cc1Cl` = 100

* * *

In this section we review reported Zea mays (efficacy in %) values for a set of compounds.
tested on: Zea mays; assay: Post-emergence crop plant compatibility; type: in vivo; settings: application rate 5 g/ha
Respond numerically; units are % and should not be typed.

Here's what some known entries look like.
[
  {
    "Compound": "Cn1c(C(F)(F)F)cc(=O)n(-c2cc(Oc3cccnc3OCC(=O)OC[Si](C)(C)C)c(Cl)cc2F)c1=O [I.15-201]",
    "Recorded value": 20
  },
  {
    "Compound": "Cn1c(C(F)(F)F)cc(=O)n(-c2cc(Oc3cccnc3OCC(=O)OCC#N)c(Cl)cc2F)c1=O [I.15-176]",
    "Recorded value": 20
  },
  {
    "Compound": "Cn1c(C(F)(F)F)cc(=O)n(-c2cc(Sc3cccnc3SCC(=O)OCC3CCCO3)c(Cl)cc2F)c1=O (stereo not drawn) [I.10-71]",
    "Recorded value": 20
  },
  {
    "Compound": "Cn1c(C(F)(F)F)cc(=O)n(-c2cc(Oc3cccnc3OCC(=O)OC3COC3)c([N+](=O)[O-])cc2F)c1=O [I.14-115]",
    "Recorded value": 20
  },
  {
    "Compound": "CCOCCOC(=O)COc1ncccc1Oc1cc(-n2c(=O)cc(C(F)(F)F)n(C)c2=O)c(F)cc1[N+](=O)[O-] [I.14-2]",
    "Recorded value": 20
  }
]

Lab entry: Zea mays assay, compound COCCOC(=O)COc1ncccc1Oc1cc(-n2c(=O)cc(C(F)(F)F)n(C)c2=O)c(F)cc1[N+](=O)[O-] [I.14-1] , Zea mays (efficacy in %) = 10
